// IC50 lookup, one value per entry
tested on: CNE-2; experiment: Cytotoxicity against human CNE2 cells after 48 hrs by MTT assay; assay type: functional, cell-based; conditions: CNE-2, 48 h

Example molecules with recorded IC50:
Fill in reported IC50 for this entry: C/C=C(\C)C(=O)O[C@H]1C[C@@](C)(O)[C@@H]2CC(=O)C(C)=C2[C@H]2OC(=O)[C@@H](C)[C@H]12 > 10 µM

Dear colleague, please send me the reported IC50 for C/C=C(\C)C(=O)O[C@H]1C[C@@](C)(O)[C@]23C=C[C@](C)([C@@H]2[C@H]2OC(=O)[C@@H](C)[C@@H]21)[C@]1(C3)C(=O)O[C@@H]2[C@H]3C(C)=CC[C@H]3[C@](C)(O)C[C@H](O)[C@H]21 when you can. 9.9 µM

Name the recorded IC50 of the molecule listed here: CC1=CC[C@@H]2[C@H]1[C@H]1OC(=O)[C@H](C)[C@@H]1[C@@H](O)C[C@@]2(C)O > 10 µM

Please give the documented IC50 of C/C=C(\C)C(=O)O[C@H]1C[C@@](C)(O)[C@@H]2CC=C(C)[C@@H]2[C@H]2OC(=O)[C@H](C)[C@@H]21 > 10 µM

---
Answer with reported IC50 of C=C1C(=O)O[C@H]2[C@H]1[C@@H](OC(=O)/C(C)=C/C)C[C@@](C)(O)[C@]13C=C[C@](C)([C@H]21)[C@]1(C3)C(=O)O[C@@H]2[C@H]3C(C)=CC[C@H]3[C@](C)(O)C[C@H](O)[C@H]21 > 10 µM

###

system: CNE-2; assay: Cytotoxicity against human CNE2 cells after 48 hrs by MTT assay; assay type: functional, cell-based; settings: CNE-2, 48 h
In this section, each of the compounds is paired with its reported IC50.

// fetch IC50 given entry C=C1C(=O)O[C@@H]2[C@@H]3[C@@]4(C=C[C@@]3(C)[C@]3(C4)C(=O)O[C@@H]4[C@H]5C(C)=CC(=O)C5=C(C)CC[C@H]43)[C@](C)(O)CC[C@@H]12 > 10 µM

***
Report IC50 for C/C=C(\C)C(=O)O[C@H]1CC(C)=C2C[C@H](O)[C@](C)(O)[C@@H]2[C@H]2OC(=O)[C@@H](C)[C@@H]21 > 10 µM

State its IC50: C=C1C(=O)O[C@H]2[C@H]1[C@@H](OC(=O)/C(C)=C/C)C[C@@](C)(O)[C@]13C=C[C@](C)([C@H]21)[C@]1(C3)C(=O)O[C@@H]2[C@H]3C(C)=CC[C@H]3[C@](C)(O)C[C@H](OC(=O)/C(C)=C/C)[C@H]21 6 µM

Entry C/C=C(/C)C(=O)O[C@H]1C[C@@](C)(O)[C@@H]2CC(=O)C(C)=C2[C@H]2OC(=O)[C@@H](C)[C@H]12 needs its IC50 filled in; supply it. > 10 µM

// Input: C=C1C(=O)O[C@@H]2[C@@H]3[C@@]4(C=C[C@@]3(C)[C@]3(C4)C(=O)O[C@@H]4[C@H]5C(C)=CC[C@H]5[C@](C)(O)C[C@H](OC(C)=O)[C@H]43)[C@](C)(O)CC[C@@H]12 . Output its IC50 only. > 10 µM

Quick one: give measured IC50 for C=C1C(=O)O[C@@H]2[C@@H]3[C@@]4(C=C[C@@]3(C)[C@]3(C4)C(=O)O[C@@H]4[C@H]5C(C)=CC[C@H]5[C@](C)(O)C[C@H](O)[C@H]43)[C@](C)(O)CC[C@@H]12 > 10 µM
